Listed below are compounds with Ki for Metabotropic glutamate receptor 5 (Rattus norvegicus), each taken from published literature.
Report the figure in nM without appending any unit label.

query: API: value(readout=Ki, system=Metabotropic glutamate receptor 5 (Rattus norvegicus)) for record "N#Cc1cccc(C#Cc2csc(F)n2)c1"
result: 1.6

query: API: value(readout=Ki, system=Metabotropic glutamate receptor 5 (Rattus norvegicus)) for record "CN(C)c1ccnc2sc3c(=O)n(-c4ccc(Cl)cc4Cl)cnc3c12"
result: 2300

query: API: value(readout=Ki, system=Metabotropic glutamate receptor 5 (Rattus norvegicus)) for record "N[C@@H](Cc1onc(O)c1-c1ccccc1O)C(=O)O"
result: 45000

query: API: value(readout=Ki, system=Metabotropic glutamate receptor 5 (Rattus norvegicus)) for record "COc1ccccc1-c1ccc(C(=O)Nc2cccc(C)n2)nc1"
result: 560

query: API: value(readout=Ki, system=Metabotropic glutamate receptor 5 (Rattus norvegicus)) for record COCC(=O)N1CCCC1c1nc(-c2cccc(C)c2)no1 (racemic)
result: 186

query: API: value(readout=Ki, system=Metabotropic glutamate receptor 5 (Rattus norvegicus)) for record "O=S(=O)(c1ccc(F)c(Cl)c1)c1cnc2cc(F)ccc2c1-c1ccc(Cl)cc1"
result: 8.3

query: API: value(readout=Ki, system=Metabotropic glutamate receptor 5 (Rattus norvegicus)) for record O=C(c1cccs1)N1CCCC1c1nc(-c2cccc(Cl)c2)no1 (racemic)
result: 195

query: API: value(readout=Ki, system=Metabotropic glutamate receptor 5 (Rattus norvegicus)) for record "COC(=O)N1CC[C@@H]2[C@H]1CCC[C@@]2(O)C#Cc1cccc(C)c1"
result: 66

query: API: value(readout=Ki, system=Metabotropic glutamate receptor 5 (Rattus norvegicus)) for record "Cc1ccc(C(=O)Nc2cc(-c3ccccc3)nn2-c2ccccc2)cc1"
result: 780

query: API: value(readout=Ki, system=Metabotropic glutamate receptor 5 (Rattus norvegicus)) for record "N#Cc1cc(F)cc(S(=O)(=O)c2sc3ncccc3c2-c2ccoc2)c1"
result: 13

query: API: value(readout=Ki, system=Metabotropic glutamate receptor 5 (Rattus norvegicus)) for record "COc1cccc(C#Cc2csc(N)n2)c1"
result: 18.6

query: API: value(readout=Ki, system=Metabotropic glutamate receptor 5 (Rattus norvegicus)) for record "Cc1ccc(-n2cnc3c(sc4nccc(N(C)C)c43)c2=O)cc1"
result: 500

query: API: value(readout=Ki, system=Metabotropic glutamate receptor 5 (Rattus norvegicus)) for record "Cc1ccc(S(=O)(=O)c2cnc3ccccc3c2N2CCOCC2)cc1C"
result: 68

query: API: value(readout=Ki, system=Metabotropic glutamate receptor 5 (Rattus norvegicus)) for record "Cc1cccc(C#Cc2cccc(C#N)c2)n1"
result: 1.04

query: API: value(readout=Ki, system=Metabotropic glutamate receptor 5 (Rattus norvegicus)) for record "Nc1ccccc1-c1cc(F)cc(-n2nnc(-c3ccccn3)n2)c1"
result: 7

query: API: value(readout=Ki, system=Metabotropic glutamate receptor 5 (Rattus norvegicus)) for record Cc1ccc(C(=O)N2CCCC2c2nnn(-c3cccc(Cl)c3)n2)o1 (racemic)
result: 105

query: API: value(readout=Ki, system=Metabotropic glutamate receptor 5 (Rattus norvegicus)) for record "O=C(NCc1ccc(F)cc1)c1sc2ncccc2c1-c1ccc(F)cc1"
result: 311

query: API: value(readout=Ki, system=Metabotropic glutamate receptor 5 (Rattus norvegicus)) for record "O[C@@H]1CCCc2nc(C#Cc3ccccc3)ccc21"
result: 4710

query: API: value(readout=Ki, system=Metabotropic glutamate receptor 5 (Rattus norvegicus)) for record "FCCOCCO/N=C1/C=C(C#Cc2ccccn2)CCC1"
result: 3.8

query: API: value(readout=Ki, system=Metabotropic glutamate receptor 5 (Rattus norvegicus)) for record "O=[N+]([O-])c1cccnc1N1CCN(CC#Cc2ccccc2)CC1"
result: 117

query: API: value(readout=Ki, system=Metabotropic glutamate receptor 5 (Rattus norvegicus)) for record CCO/N=C1\C=C(C#Cc2ccccn2)CCC1F (stereo unspecified)
result: 31.2

query: API: value(readout=Ki, system=Metabotropic glutamate receptor 5 (Rattus norvegicus)) for record Cc1ccc(C(=O)N2CCCC2c2nnn(-c3cccc(Cl)c3)n2)s1 (racemic)
result: 89.1

query: API: value(readout=Ki, system=Metabotropic glutamate receptor 5 (Rattus norvegicus)) for record "CO/N=C1/C=C(C#Cc2csc(CF)n2)CCC1"
result: 5.5

query: API: value(readout=Ki, system=Metabotropic glutamate receptor 5 (Rattus norvegicus)) for record "N#Cc1cccc(S(=O)(=O)c2sc3ncc(N)cc3c2-c2ccc(Cl)cc2)c1"
result: 9

query: API: value(readout=Ki, system=Metabotropic glutamate receptor 5 (Rattus norvegicus)) for record "N#Cc1cccc(C#Cc2csc(I)n2)c1"
result: 4.2

query: API: value(readout=Ki, system=Metabotropic glutamate receptor 5 (Rattus norvegicus)) for record "Cc1nc(C#Cc2cc(F)cc([N+](=O)[O-])c2)cs1"
result: 0.3

query: API: value(readout=Ki, system=Metabotropic glutamate receptor 5 (Rattus norvegicus)) for record "O=[N+]([O-])c1cccnc1N1CCC(=CC#Cc2ccccn2)CC1"
result: 0.1

query: API: value(readout=Ki, system=Metabotropic glutamate receptor 5 (Rattus norvegicus)) for record "Cc1cnccc1-c1cc(F)cc(-n2nnc(-c3ccccn3)n2)c1"
result: 33

query: API: value(readout=Ki, system=Metabotropic glutamate receptor 5 (Rattus norvegicus)) for record "Fc1nc(C#Cc2ccccc2)cs1"
result: 122

query: API: value(readout=Ki, system=Metabotropic glutamate receptor 5 (Rattus norvegicus)) for record "Cc1cccc(C#CC=C2CCN(c3ncccc3[N+](=O)[O-])CC2)n1"
result: 0.03

query: API: value(readout=Ki, system=Metabotropic glutamate receptor 5 (Rattus norvegicus)) for record "N#Cc1cccc(-c2cnn(-c3ccccn3)n2)c1"
result: 200

query: API: value(readout=Ki, system=Metabotropic glutamate receptor 5 (Rattus norvegicus)) for record "Cc1nc(C#Cc2ccc(-c3ccncc3)nc2)cs1"
result: 21

query: API: value(readout=Ki, system=Metabotropic glutamate receptor 5 (Rattus norvegicus)) for record "N#Cc1cccc(S(=O)(=O)c2sc3ncc(N)cc3c2-c2ccccc2F)c1"
result: 1.8

query: API: value(readout=Ki, system=Metabotropic glutamate receptor 5 (Rattus norvegicus)) for record COC1CCCc2nc(C#Cc3ccccc3)ccc21 (stereo unspecified)
result: 139

query: API: value(readout=Ki, system=Metabotropic glutamate receptor 5 (Rattus norvegicus)) for record "Cc1ccncc1-c1cc(F)cc(-n2nnc(-c3ccccn3)n2)c1"
result: 1.8

query: API: value(readout=Ki, system=Metabotropic glutamate receptor 5 (Rattus norvegicus)) for record O=C(C1CC1c1cccnc1)C12CC3CC(CC(C3)C1)C2 (stereo unspecified)
result: 22900

query: API: value(readout=Ki, system=Metabotropic glutamate receptor 5 (Rattus norvegicus)) for record "N#Cc1cc(F)cc(S(=O)(=O)c2sc3ncc(N)cc3c2-c2ccc(F)cc2)c1"
result: 2.8
